# TEST SYSTEM: T1, cynomolgus (cyno) TMEM106B (cynomolgus, UniProt Q9NUM4 2-274 (human entry))
# T1 construct: on transiently transfected HEK293 cells
# PROTOCOL DETAILS: FACS, HEK293 transfectants;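 further: flow cytometry binding of hybridoma supernatants to HEK293 cells transiently expressing human, cyno or mouse TMEM106B, read as anti-mouse-APC median fluorescence, live cells only, 30 min on ice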

{"BINDER": "anti-TMEM106B antibody TM-23 (antibody, V domains shown) VH: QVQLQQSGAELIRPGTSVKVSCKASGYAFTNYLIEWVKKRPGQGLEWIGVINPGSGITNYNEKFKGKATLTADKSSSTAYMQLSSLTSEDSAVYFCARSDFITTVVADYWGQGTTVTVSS VL: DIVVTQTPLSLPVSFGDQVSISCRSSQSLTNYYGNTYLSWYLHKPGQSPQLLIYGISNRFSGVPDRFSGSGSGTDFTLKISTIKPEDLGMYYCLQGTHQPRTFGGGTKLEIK", "fold-change over parental HEK293 [fold]": 12.2}
{"BINDER": "anti-TMEM106B antibody TM-28 (antibody, V domains shown) VH: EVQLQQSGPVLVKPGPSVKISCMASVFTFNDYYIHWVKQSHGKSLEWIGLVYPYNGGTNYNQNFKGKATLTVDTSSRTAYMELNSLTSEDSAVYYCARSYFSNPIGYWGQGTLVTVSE VL: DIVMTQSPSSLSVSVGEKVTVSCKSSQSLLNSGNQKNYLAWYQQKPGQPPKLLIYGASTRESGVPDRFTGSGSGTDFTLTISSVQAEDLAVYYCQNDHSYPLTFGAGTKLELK", "fold-change over parental HEK293 [fold]": 33.7}
{"BINDER": "anti-TMEM106B antibody TM-11 (antibody, V domains shown) VH: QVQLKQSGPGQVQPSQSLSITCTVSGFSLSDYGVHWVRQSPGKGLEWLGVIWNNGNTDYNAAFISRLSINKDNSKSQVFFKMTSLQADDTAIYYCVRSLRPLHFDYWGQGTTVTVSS VL: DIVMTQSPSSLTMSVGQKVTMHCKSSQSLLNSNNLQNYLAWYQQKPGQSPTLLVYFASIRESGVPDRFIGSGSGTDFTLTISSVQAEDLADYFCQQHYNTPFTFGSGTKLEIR", "fold-change over parental HEK293 [fold]": 23.7}
{"BINDER": "anti-TMEM106B antibody TM-33 (antibody, V domains shown, mouse IgG from hybridoma) VH: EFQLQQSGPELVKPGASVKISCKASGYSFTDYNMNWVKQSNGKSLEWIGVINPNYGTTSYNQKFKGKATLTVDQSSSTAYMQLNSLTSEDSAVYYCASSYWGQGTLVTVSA VL: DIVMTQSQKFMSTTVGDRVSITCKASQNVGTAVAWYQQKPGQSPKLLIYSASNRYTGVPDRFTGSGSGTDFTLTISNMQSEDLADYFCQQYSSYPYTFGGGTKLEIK", "fold-change over parental HEK293 [fold]": 7.74}
{"BINDER": "anti-TMEM106B antibody TM-3 (antibody, V domains shown) VH: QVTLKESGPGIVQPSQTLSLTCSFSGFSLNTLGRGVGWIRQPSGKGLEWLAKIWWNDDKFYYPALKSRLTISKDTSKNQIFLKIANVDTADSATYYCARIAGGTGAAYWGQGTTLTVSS VL: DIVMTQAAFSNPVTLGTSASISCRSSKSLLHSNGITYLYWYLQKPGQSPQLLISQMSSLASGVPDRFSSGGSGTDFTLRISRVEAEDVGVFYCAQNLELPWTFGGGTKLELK", "fold-change over parental HEK293 [fold]": 40.5}
